# Assayed system: acetylcholine receptor
# Assay remarks: SPR, receptor immobilized, peptide 10 uM
Overview of reported Binding affinity (RU) across a group of binders:
Endpoint: Binding affinity (RU)

>  <Binder>
RRWLYK [6mer-1-136]

>  <Units text>
RU

>  <Reported result>
148

$$$$
>  <Binder>
RTMDRR [6mer-2-879]

>  <Units text>
RU

>  <Reported result>
19

$$$$
>  <Binder>
RIWAR [5mer-760]

>  <Units text>
RU

>  <Reported result>
19

$$$$
>  <Binder>
KFWIR [5mer-789]

>  <Units text>
RU

>  <Reported result>
12

$$$$
